These entries and their values trace back to ChEMBL document CHEMBL5058577.

- Test system: U2OS
- test_protocol: Multiplex assay against U2OS
- Type: toxicity, cell-based
- conditions: human, 24 h, 10 µM, compound concentration 10 uM, replicate 1
# maps each entry to its Total Cell Count

{"molecule": "COC[C@@H](c1ccc(C(F)(F)F)cc1)N1CCN(C2(C)CCN(C(=O)c3c(C)ncnc3C)CC2)C[C@@H]1C.O=C(O)/C=C\\C(=O)O [VICRIVIROC MALEATE]", "Total Cell Count": 326}
{"molecule": "CN[C@@H](C)C(=O)N[C@H](C(=O)N1CCC[C@H]1C(=O)Nc1snnc1-c1ccccc1)C1CCCCC1", "Total Cell Count": 220}
{"molecule": "COc1cccc2c1c(NS(=O)(=O)c1ccc(Cl)s1)nn2Cc1cccc(CNC(=O)C(C)(C)O)c1", "Total Cell Count": 304}
{"molecule": "CC[C@@H](C)Nc1nc(C)nc2c(-c3ccc(OC)nc3C)c(C)nn12", "Total Cell Count": 307}
{"molecule": "COc1ccccc1N1CCN(C[C@@H](C(=O)NC(C)(C)C)c2ccccc2)CC1.Cl.Cl", "Total Cell Count": 235}
{"molecule": "CC(=O)Nc1cccc2c1c(Sc1ccc(Cl)cc1)c(C)n2CC(=O)O", "Total Cell Count": 266}
{"molecule": "CC(C)c1noc(N2CCC(COc3ccc(-c4ccc(S(C)(=O)=O)cc4)nc3)CC2)n1", "Total Cell Count": 284}
{"molecule": "O=C(NCCN1CCC(n2c(=O)[nH]c3cc(Cl)ccc32)CC1)c1ccc(F)cc1 [HALOPEMIDE]", "Total Cell Count": 271}

---

- Test system: U2OS
- test_protocol: Multiplex assay against U2OS
- Type: toxicity, cell-based
- conditions: human, 12 h, 10 µM, compound concentration 10 uM, replicate 1
Population Membrane Permeable-Phenotype (%) reference
assay_endpoint: Population Membrane Permeable-Phenotype (%)

{"item_smiles": "Cc1cnc(-c2cc(N3CCN(C(=O)CCS(C)(=O)=O)CC3)ncc2Cl)c(C)c1", "measured_result": "4%"}
{"item_smiles": "Cc1noc(-c2ccc(-c3ccc(CC(=O)O)cc3)cc2)c1NC(=O)O[C@H](C)c1ccccc1Cl", "measured_result": "11%"}
{"item_smiles": "CC(/C=C1\\SC(=S)N(CCCC(=O)Nc2ccc(C(=O)O)c(O)c2)C1=O)=C\\c1ccccc1", "measured_result": "12%"}
{"item_smiles": "CC(C)(C)c1cc(NC(=O)Nc2ccc(-c3cn4c(n3)sc3cc(OCCN5CCOCC5)ccc34)cc2)no1", "measured_result": "85%"}

---

- Test system: U2OS
- test_protocol: Multiplex assay against U2OS
- Format: toxicity, cell-based
- conditions: human, 48 h, 1 µM, compound concentration 1 uM, replicate 1
Some molecules, each annotated with its measured Total Cell Count.

{"item_smiles": "CCCCC(=O)N(Cc1ccc(-c2ccccc2-c2nnn[nH]2)cc1)[C@H](C(=O)O)C(C)C", "Total Cell Count": 397}
{"item_smiles": "CC(/C=C1\\SC(=S)N(CCCC(=O)Nc2ccc(C(=O)O)c(O)c2)C1=O)=C\\c1ccccc1", "Total Cell Count": 368}
{"item_smiles": "CC(C)c1noc(N2CCC(COc3ccc(-c4ccc(S(C)(=O)=O)cc4)nc3)CC2)n1", "Total Cell Count": 339}
{"item_smiles": "CN1CCN(c2cc(-c3ccccc3)nc(N)n2)CC1", "Total Cell Count": 409}
{"item_smiles": "Cc1c(CC(=O)O)c2cccnc2n1Cc1ccc(S(C)(=O)=O)cc1C(F)(F)F", "Total Cell Count": 379}
{"item_smiles": "Cc1cnc(-c2cc(N3CCN(C(=O)CCS(C)(=O)=O)CC3)ncc2Cl)c(C)c1", "Total Cell Count": 325}
{"item_smiles": "CN[C@@H](C)C(=O)N[C@H](C(=O)N1CCC[C@H]1C(=O)Nc1snnc1-c1ccccc1)C1CCCCC1", "Total Cell Count": 246}
{"item_smiles": "COc1cccc2c1c(NS(=O)(=O)c1ccc(Cl)s1)nn2Cc1cccc(CNC(=O)C(C)(C)O)c1", "Total Cell Count": 463}
{"item_smiles": "CCCOc1ccc2[nH]cc(C3=CCNCC3)c2n1.Cl", "Total Cell Count": 350}
